# viability, T/C values compiled below
test system: 276233-004-R-J1-PDC KRAS spheroids with HUVEC/MSC, viability; experiment: Anticancer human tumor 276233-004-R-J1-PDC patient-derived colon adenocarcinoma cell line growth inhibition [KRAS2]; settings: second compound 0.1 µM; first compound 0.00316 µM; stronger effect = lower value;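 note: cells exposed to agents for seven days before viability read; 100% = DMSO vehicle control wells and lower values mean fewer viable cells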
measured quantity: viability, T/C

>  <compound>
CC(=O)Nc1cccc(-n2c(=O)n(C3CC3)c(=O)c3c(Nc4ccc(I)cc4F)n(C)c(=O)c(C)c32)c1 + C=CC(=O)N1CCN(c2nc(OCC3CCCN3C)nc3c2CCN(c2cccc4cccc(C)c24)C3)CC1CC#N

>  <measured quantity>
viability, T/C

>  <result>
63.1%

$$$$
>  <compound>
CC(=O)Nc1cccc(-n2c(=O)n(C3CC3)c(=O)c3c(Nc4ccc(I)cc4F)n(C)c(=O)c(C)c32)c1 + COc1cc2nc(C)nc(NC(C)c3cc(N)cc(C(F)(F)F)c3)c2cc1OC1CCOC1

>  <measured quantity>
viability, T/C

>  <result>
63%

$$$$
>  <compound>
Cn1ncnc1[C@H]1c2n[nH]c(=O)c3cc(F)cc(c23)N[C@@H]1c1ccc(F)cc1 + C=CC(=O)N1CCN(c2nc(OCC3CCCN3C)nc3c2CCN(c2cccc4cccc(C)c24)C3)CC1CC#N

>  <measured quantity>
viability, T/C

>  <result>
103%

$$$$
>  <compound>
CN(C)C/C=C/C(=O)Nc1cc2c(Nc3ccc(F)c(Cl)c3)ncnc2cc1O[C@H]1CCOC1 + CNCc1ccccc1-c1csc(C(C)Nc2nc(C)nc3cc(OC)c(OC)cc23)c1

>  <measured quantity>
viability, T/C

>  <result>
89%

$$$$
>  <compound>
CCN1CCN(Cc2ccc(Nc3ncc(F)c(-c4cc(F)c5nc(C)n(C(C)C)c5c4)n3)nc2)CC1 + C=CC(=O)N1CCN(c2nc(=O)n(-c3c(C)ccnc3C(C)C)c3nc(-c4c(O)cccc4F)c(F)cc23)C(C)C1

>  <measured quantity>
viability, T/C

>  <result>
85.7%

$$$$
>  <compound>
CN(C)C/C=C/C(=O)Nc1cc2c(Nc3ccc(F)c(Cl)c3)ncnc2cc1O[C@H]1CCOC1 + C=CC(=O)N1CCN(c2nc(OCC3CCCN3C)nc3c2CCN(c2cccc4cccc(C)c24)C3)CC1CC#N

>  <measured quantity>
viability, T/C

>  <result>
91.3%

$$$$
>  <compound>
CN(C)C/C=C/C(=O)Nc1cc2c(Nc3ccc(F)c(Cl)c3)ncnc2cc1O[C@H]1CCOC1 + C=CC(=O)N1CCN(c2nc(=O)n(-c3c(C)ccnc3C(C)C)c3nc(-c4c(O)cccc4F)c(F)cc23)C(C)C1

>  <measured quantity>
viability, T/C

>  <result>
72%

$$$$
>  <compound>
CC(=O)Nc1cccc(-n2c(=O)n(C3CC3)c(=O)c3c(Nc4ccc(I)cc4F)n(C)c(=O)c(C)c32)c1 + C=CC(=O)N1CCN(c2nc(=O)n(-c3c(C)ccnc3C(C)C)c3nc(-c4c(O)cccc4F)c(F)cc23)C(C)C1

>  <measured quantity>
viability, T/C

>  <result>
58.9%

$$$$
>  <compound>
Cn1ncnc1[C@H]1c2n[nH]c(=O)c3cc(F)cc(c23)N[C@@H]1c1ccc(F)cc1 + C=CC(=O)N1CCN(c2nc(=O)n(-c3c(C)ccnc3C(C)C)c3nc(-c4c(O)cccc4F)c(F)cc23)C(C)C1

>  <measured quantity>
viability, T/C

>  <result>
94.8%

$$$$
>  <compound>
CN(C)C/C=C/C(=O)Nc1cc2c(Nc3ccc(F)c(Cl)c3)ncnc2cc1O[C@H]1CCOC1 + CC1OCC2(CCN(c3cnc(Sc4ccnc(N)c4Cl)c(N)n3)CC2)C1N

>  <measured quantity>
viability, T/C

>  <result>
92.4%

$$$$
